Values from ChEMBL document CHEMBL1137784

# TARGET_SYSTEM: Nitric oxide synthase 1 (Homo sapiens, UniProt P29475)
# Sequence (P29475 whole entry): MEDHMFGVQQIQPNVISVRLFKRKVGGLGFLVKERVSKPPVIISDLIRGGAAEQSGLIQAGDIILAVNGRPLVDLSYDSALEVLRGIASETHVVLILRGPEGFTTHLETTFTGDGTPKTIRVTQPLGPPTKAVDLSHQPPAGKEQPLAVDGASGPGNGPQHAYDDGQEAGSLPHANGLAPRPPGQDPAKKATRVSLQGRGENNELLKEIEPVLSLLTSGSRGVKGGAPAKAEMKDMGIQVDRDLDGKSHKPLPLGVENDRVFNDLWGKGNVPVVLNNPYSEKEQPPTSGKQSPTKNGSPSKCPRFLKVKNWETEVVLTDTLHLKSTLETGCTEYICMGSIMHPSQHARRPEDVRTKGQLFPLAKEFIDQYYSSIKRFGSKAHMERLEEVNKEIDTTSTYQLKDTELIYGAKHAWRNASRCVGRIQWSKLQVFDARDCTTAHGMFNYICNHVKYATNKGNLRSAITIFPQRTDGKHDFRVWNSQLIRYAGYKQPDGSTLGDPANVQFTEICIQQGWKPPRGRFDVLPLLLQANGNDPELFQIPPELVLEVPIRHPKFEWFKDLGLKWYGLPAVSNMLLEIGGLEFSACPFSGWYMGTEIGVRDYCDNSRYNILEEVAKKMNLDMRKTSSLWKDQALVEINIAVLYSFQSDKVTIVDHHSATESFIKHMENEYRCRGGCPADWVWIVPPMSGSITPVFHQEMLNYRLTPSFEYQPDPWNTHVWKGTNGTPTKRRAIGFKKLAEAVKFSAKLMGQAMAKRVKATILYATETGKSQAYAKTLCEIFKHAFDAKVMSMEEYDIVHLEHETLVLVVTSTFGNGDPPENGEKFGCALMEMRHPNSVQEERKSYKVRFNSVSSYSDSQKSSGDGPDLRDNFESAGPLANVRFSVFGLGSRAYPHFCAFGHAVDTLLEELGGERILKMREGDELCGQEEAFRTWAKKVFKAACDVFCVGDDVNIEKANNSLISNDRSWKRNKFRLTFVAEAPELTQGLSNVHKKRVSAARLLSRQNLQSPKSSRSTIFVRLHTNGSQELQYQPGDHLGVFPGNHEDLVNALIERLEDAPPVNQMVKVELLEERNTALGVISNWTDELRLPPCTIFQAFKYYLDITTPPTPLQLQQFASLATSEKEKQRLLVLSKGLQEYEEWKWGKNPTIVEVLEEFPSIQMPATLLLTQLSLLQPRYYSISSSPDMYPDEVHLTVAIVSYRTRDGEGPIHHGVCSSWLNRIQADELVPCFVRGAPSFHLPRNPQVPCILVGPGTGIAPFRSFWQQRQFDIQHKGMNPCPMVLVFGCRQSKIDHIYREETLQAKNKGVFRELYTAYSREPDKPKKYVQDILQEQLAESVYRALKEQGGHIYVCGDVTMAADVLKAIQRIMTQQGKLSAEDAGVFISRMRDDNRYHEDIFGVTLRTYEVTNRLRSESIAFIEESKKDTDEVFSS
# TEST_METHOD_NOTES: Inhibition of human nNOS by hemoglobin capture assay
Recorded IC50 values for a group of compounds are listed next.
Give just the numeric value; µM need not be written.

Entry Cc1cc(N)nc(CC2CNCC2NCCN)c1 (racemic) : IC50 on Nitric oxide synthase 1 (Homo sapiens, UniProt P29475) = 4

Entry Cc1cc(N)nc(CC2CNCC2NCCNCCc2ccc(Cl)cc2)c1 (racemic) : IC50 on Nitric oxide synthase 1 (Homo sapiens, UniProt P29475) = 4.2

Entry Cc1cc(N)nc(CC2CNCC2OCCNCCc2cccc(F)c2)c1 (racemic) : IC50 on Nitric oxide synthase 1 (Homo sapiens, UniProt P29475) = 0.6

Entry NCCNC1CNCC1Cc1cccc(N)n1 (racemic) : IC50 on Nitric oxide synthase 1 (Homo sapiens, UniProt P29475) = 15.3

Entry Cc1cc(N)nc(CC2CNCC2NC(=O)CNCCc2cccc(F)c2)c1 (racemic) : IC50 on Nitric oxide synthase 1 (Homo sapiens, UniProt P29475) = 3

Entry Cc1cc(N)nc(CC2CNCC2NCCOCCc2cccc(F)c2)c1 (racemic) : IC50 on Nitric oxide synthase 1 (Homo sapiens, UniProt P29475) = 6.6

Entry Cc1cc(C)nc(N)c1 : IC50 on Nitric oxide synthase 1 (Homo sapiens, UniProt P29475) = 0.1
